Could you please report measured PBM binding z-score for the items listed next?
test system: LXRb:RXRa (NR concentration 270 nM, RXRa partner concentration 90 nM); assay: PBM binding z-score (relative to random genomic background probes); higher = stronger binding; sequences stand for … in GC…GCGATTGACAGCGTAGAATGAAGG

{"columns": ["SEQ", "PBM binding z-score"],
 "data": [
  ["CCTACTGGGCCATCAGGTCATCGATATCAACGTT", 1.38],
  ["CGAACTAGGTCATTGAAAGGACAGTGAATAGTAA", 1.84],
  ["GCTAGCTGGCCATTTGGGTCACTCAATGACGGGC", -0.164],
  ["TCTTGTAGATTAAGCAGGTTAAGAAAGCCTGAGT", 0.403],
  ["CTCGAAAGGTCGGTTGAGGTAAGTATACGGATAA", 1.28]
]}

Q: Provide only the value of recorded PBM binding z-score for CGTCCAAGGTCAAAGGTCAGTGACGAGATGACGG
Ans: 6.4
